Biological target: Macaca fascicularis IL-36R extracellular domain expressed with a C-terminal myc-myc-hexahistidine tag (mfIL-36R-MMH) (Macaca fascicularis)
Assay: SPR Biacore 4000, mAb captured on anti-hFc, 37C
quantity name: kon
# output: number + unit

Give a short answer stating reported kon for H4H14731P (antibody, human IgG4 S228P, kappa, V domains shown) VH: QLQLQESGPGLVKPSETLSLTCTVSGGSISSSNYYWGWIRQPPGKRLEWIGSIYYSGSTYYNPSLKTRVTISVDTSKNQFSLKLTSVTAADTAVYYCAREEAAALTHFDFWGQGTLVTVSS VL: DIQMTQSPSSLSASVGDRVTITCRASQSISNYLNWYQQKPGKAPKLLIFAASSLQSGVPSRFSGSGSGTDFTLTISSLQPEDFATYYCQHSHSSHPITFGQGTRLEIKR .
66800 M⁻¹ s⁻¹
